The values you see were collected from patent US20240217990A1.

# target or system: TLR8 (Homo sapiens, UniProt Q9NR97)
# Construct: Human peripheral blood mononuclear cells (PBMCs) consist of lymphocytes, monocytes and dendritic cells that express TLR7, TLR8 and TLR9; endogenous in cells
# Sequence (Q9NR97 27-1041): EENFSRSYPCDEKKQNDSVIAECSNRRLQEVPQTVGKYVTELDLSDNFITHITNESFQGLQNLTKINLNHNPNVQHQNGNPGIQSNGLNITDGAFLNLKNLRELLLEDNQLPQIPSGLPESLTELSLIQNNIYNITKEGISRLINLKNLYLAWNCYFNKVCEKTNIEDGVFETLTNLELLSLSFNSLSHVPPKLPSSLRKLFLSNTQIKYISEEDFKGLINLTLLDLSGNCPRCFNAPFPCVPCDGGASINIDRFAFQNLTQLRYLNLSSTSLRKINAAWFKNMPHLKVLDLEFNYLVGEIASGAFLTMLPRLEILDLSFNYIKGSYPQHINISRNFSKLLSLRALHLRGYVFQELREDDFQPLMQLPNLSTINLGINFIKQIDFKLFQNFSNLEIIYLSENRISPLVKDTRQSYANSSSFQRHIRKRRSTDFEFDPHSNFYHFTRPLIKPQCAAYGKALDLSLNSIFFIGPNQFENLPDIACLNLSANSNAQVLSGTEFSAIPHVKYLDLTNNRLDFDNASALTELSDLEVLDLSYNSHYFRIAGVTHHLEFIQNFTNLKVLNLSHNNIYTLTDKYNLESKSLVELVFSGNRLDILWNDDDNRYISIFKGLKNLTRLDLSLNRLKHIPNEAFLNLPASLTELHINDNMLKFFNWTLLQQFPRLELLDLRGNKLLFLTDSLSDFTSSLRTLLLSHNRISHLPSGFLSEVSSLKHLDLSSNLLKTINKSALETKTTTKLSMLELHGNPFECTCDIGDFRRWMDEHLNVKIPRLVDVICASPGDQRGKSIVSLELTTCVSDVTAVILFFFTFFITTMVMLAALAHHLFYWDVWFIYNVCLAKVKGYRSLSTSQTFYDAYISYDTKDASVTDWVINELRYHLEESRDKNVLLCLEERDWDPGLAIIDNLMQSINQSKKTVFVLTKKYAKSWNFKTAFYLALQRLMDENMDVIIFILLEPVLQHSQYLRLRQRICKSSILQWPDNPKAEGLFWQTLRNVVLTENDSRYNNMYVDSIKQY
# protocol text: TLR8 human PBMC cell-based assay (antagonist, Compound A stimulated cytokine release)
# condition set: human PBMCs; TLR8 agonist Compound A 800 nM, 6 hours; cytokines (TNFa and IL 12p40) in supernatant; read-out: TLR-8 EC50
pEC50 by entry:
Interpret pEC50 as the negative base-10 log of the concentration measured in mol/L.

compound	recorded result
CO[C@@H]1CCN(C(=O)c2cc3[nH]c(-c4cc(C)nc(C)c4)c(C(C)C)c3s2)C[C@@H]1N [Example 25]	6.87
COc1cc(-c2[nH]c3cc(C(=O)N4CCNCC4)sc3c2C(C)C)cn2ncnc12 [Example 64]	8.48

Note down pEC50 recorded for Cc1cc(-c2[nH]c3cc(C4CCC5(CC4)CN(CCO)C5)sc3c2C(C)C)cn2ncnc12 [Example 191]
9.00

----------
# target or system: TLR7 (Homo sapiens, UniProt Q9NYK1)
# Construct: Human peripheral blood mononuclear cells (PBMCs) consist of lymphocytes, monocytes and dendritic cells that express TLR7, TLR8 and TLR9; endogenous in cells
# Sequence (Q9NYK1 27-1049): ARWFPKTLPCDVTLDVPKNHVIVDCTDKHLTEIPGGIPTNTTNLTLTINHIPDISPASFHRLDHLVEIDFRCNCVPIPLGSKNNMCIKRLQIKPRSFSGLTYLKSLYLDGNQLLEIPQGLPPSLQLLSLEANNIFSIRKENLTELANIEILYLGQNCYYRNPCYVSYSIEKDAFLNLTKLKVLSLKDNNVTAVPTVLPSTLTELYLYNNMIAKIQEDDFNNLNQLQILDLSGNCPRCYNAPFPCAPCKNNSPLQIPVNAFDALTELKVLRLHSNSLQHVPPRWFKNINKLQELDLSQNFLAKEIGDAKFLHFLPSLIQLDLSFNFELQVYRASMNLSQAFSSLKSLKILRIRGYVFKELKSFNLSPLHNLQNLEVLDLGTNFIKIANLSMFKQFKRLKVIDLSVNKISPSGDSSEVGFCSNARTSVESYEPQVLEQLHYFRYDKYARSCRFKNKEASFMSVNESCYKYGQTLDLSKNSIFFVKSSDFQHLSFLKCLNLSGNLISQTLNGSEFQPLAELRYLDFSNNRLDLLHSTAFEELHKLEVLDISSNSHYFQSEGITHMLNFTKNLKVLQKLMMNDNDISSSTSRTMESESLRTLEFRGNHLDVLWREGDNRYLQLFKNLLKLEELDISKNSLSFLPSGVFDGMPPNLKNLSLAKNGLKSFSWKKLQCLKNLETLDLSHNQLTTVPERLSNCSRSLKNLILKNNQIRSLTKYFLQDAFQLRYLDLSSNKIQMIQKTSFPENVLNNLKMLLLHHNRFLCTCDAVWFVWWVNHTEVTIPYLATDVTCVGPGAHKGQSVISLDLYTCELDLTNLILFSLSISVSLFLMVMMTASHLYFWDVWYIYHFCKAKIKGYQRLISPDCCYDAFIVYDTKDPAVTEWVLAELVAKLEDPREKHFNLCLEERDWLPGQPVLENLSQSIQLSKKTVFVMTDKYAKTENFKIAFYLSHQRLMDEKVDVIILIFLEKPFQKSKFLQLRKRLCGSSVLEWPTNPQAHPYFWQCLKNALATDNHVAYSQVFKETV
# protocol text: TLR7 human PBMC cell-based assay (antagonist, GS-986 stimulated cytokine release)
# condition set: human PBMCs; TLR7 agonist GS-986 400 nM, 6 hours; cytokines (IL-6 and IFNα) in supernatant; read-out: TLR-7 EC50
Please use 1 for EC50 under 10 nM and 0 for everything else, ties included.

Cc1cc(-c2[nH]c3cc(C(=O)N4C[C@H](N)C[C@H](C(F)(F)F)C4)sc3c2C(C)C)cn2ncnc12 0
Cc1cc(-c2[nH]c3cc(C(=O)N4CC[C@@H](F)[C@@H](N)C4)sc3c2C(C)C)cc(C)n1 0
Cc1cc(-c2[nH]c3cc(C(=O)N(C)C4CCN(CC(F)F)CC4)sc3c2C(C)C)cn2ncnc12 0

Determine if Cc1cc(-c2[nH]c3cc(C(=O)N(C)[C@H]4CCNCC4(F)F)sc3c2C(C)C)cn2ncnc12 shows EC50 strictly lower than 10 nM.
0

Determine if Cc1cc(-c2[nH]c3cc(C(=O)N4CCN[C@@H](CO)C4)sc3c2C(C)C)cn2ncnc12 shows EC50 strictly lower than 10 nM.
1

----------
pEC50 by entry:
# target or system: TLR8 (Homo sapiens, UniProt Q9NR97)
# Construct: Human peripheral blood mononuclear cells (PBMCs) consist of lymphocytes, monocytes and dendritic cells that express TLR7, TLR8 and TLR9; endogenous in cells
# protocol text: TLR8 human PBMC cell-based assay (antagonist, Compound A stimulated cytokine release)
# condition set: human PBMCs; TLR8 agonist Compound A 800 nM, 6 hours; cytokines (TNFa and IL 12p40) in supernatant; read-out: TLR-8 EC50
# Excerpt: Human peripheral blood mononuclear cells (PBMCs) consist of lymphocytes, monocytes and dendritic cells that express TLR7, TLR8 and TLR9. These cells respond to TLR7, TLR8 and TLR9 ligand stimulation and produce cytokines and chemokines in vitro and in vivo. Human PBMCs are therefore suitable to be used in a cell-based assay to assess the in vitro potency of a TLR 7, 8, and/or 9 antagonist. […]
Interpret pEC50 as the negative base-10 log of the concentration measured in mol/L.

molecule	pEC50
Cc1cc(-c2[nH]c3cc(-c4cnn(C5CCN(CC(N)=O)CC5)c4)sc3c2C(C)C)cn2ncnc12 [Example 172]	8.22
Cc1cc(-c2[nH]c3cc(C(=O)N4CCN[C@H](c5ccccc5)C4)sc3c2C(C)C)cn2ncnc12 [Example 129]	8.66
Cc1cc(-c2[nH]c3cc(C(=O)C4CCNCC4)sc3c2C(C)C)cn2ncnc12 [Example 277]	8.21
Cc1cc(-c2[nH]c3cc(C(=O)N4CCC5CCNC5C4)sc3c2C(C)C)cc(C)n1 (stereo not shown) [Example 30]	7.52
Cc1cc(-c2[nH]c3cc(C(=O)N4CCC5(CCN(CC(N)=O)C5)CC4)sc3c2C(C)C)cn2ncnc12 [Example 175]	8.39

Tell me pEC50 of Cc1cc(-c2[nH]c3cc(C(=O)N4CCN[C@@H](c5ccccc5)C4)sc3c2C(C)C)cn2ncnc12 [Example 119] when tested on TLR8 (Homo sapiens, UniProt Q9NR97).
9.52

Tell me pEC50 of Cc1cc(-c2[nH]c3cc(C(=O)N4CCC5CCNC5C4)sc3c2C(C)C)cn2ncnc12 (stereo not shown) [Example 90] when tested on TLR8 (Homo sapiens, UniProt Q9NR97).
8.00

Tell me pEC50 of Cc1cc(-c2[nH]c3cc(C4CC5CCC4CN5CC(N)=O)sc3c2C(C)C)cn2ncnc12 (stereo not shown) [Example 288] when tested on TLR8 (Homo sapiens, UniProt Q9NR97).
8.19

Tell me pEC50 of Cc1cc(-c2[nH]c3cc(CN4CCN(C)CC4)sc3c2C(C)C)cn2ncnc12 [Example 265] when tested on TLR8 (Homo sapiens, UniProt Q9NR97).
8.09

Tell me pEC50 of Cc1cc(-c2[nH]c3cc(C(=O)N(C)[C@@H]4CCN(C5CCC5)C[C@@H]4F)sc3c2C(C)C)cn2ncnc12 [Example 83] when tested on TLR8 (Homo sapiens, UniProt Q9NR97).
7.75

Tell me pEC50 of Cc1cc(-c2[nH]c3cc(C(=O)N(C)[C@H]4CCNC[C@H]4F)sc3c2C(C)C)cn2ncnc12 [Example 80] when tested on TLR8 (Homo sapiens, UniProt Q9NR97).
8.02

Tell me pEC50 of Cc1cc(-c2[nH]c3cc(C4CCN(CC(N)=O)CC4)sc3c2C(C)C)cn2ncnc12 [Example 164] when tested on TLR8 (Homo sapiens, UniProt Q9NR97).
8.55

Tell me pEC50 of Cc1cc(-c2[nH]c3cc(-c4nnc(N5CCNCC5)s4)sc3c2C(C)C)cn2ncnc12 [Example 49] when tested on TLR8 (Homo sapiens, UniProt Q9NR97).
8.49

Tell me pEC50 of Cc1cc(-c2[nH]c3cc(C4CC5CNCC5C4)sc3c2C(C)C)cn2ncnc12 (stereo not shown) [Example 158] when tested on TLR8 (Homo sapiens, UniProt Q9NR97).
7.89

Tell me pEC50 of Cc1cc(-c2[nH]c3cc(C(=O)N4CCCNCC4)sc3c2C(C)C)cc(C)n1 [Example 13] when tested on TLR8 (Homo sapiens, UniProt Q9NR97).
7.57

Tell me pEC50 of Cc1cc(-c2[nH]c3cc(C(=O)N4C[C@@H]5C[C@H]4CN5)sc3c2C(C)C)cc(C)n1 [Example 20] when tested on TLR8 (Homo sapiens, UniProt Q9NR97).
7.58

Tell me pEC50 of CCN(C(=O)c1cc2[nH]c(-c3cc(C)c4ncnn4c3)c(C(C)C)c2s1)C1CCNCC1 [Example 135] when tested on TLR8 (Homo sapiens, UniProt Q9NR97).
8.00

Tell me pEC50 of Cc1c(C(=O)N2CCC[C@H](N)[C@@H]2C)sc2c(C(C)C)c(-c3cc(C)c4ncnn4c3)[nH]c12 [Example 242] when tested on TLR8 (Homo sapiens, UniProt Q9NR97).
6.66

Tell me pEC50 of Cc1cc(-c2[nH]c3cc(-c4cnc5c(c4)CN(CCO)CC5)sc3c2C(C)C)cn2ncnc12 [Example 190] when tested on TLR8 (Homo sapiens, UniProt Q9NR97).
9.30

----------
log10(EC50) by entry:
# target or system: TLR8 (Homo sapiens)
# Construct: Human peripheral blood mononuclear cells (PBMCs) consist of lymphocytes, monocytes and dendritic cells that express TLR7, TLR8 and TLR9; endogenous in cells; host or cells: cryopreserved human PBMCs from healthy donors
# protocol text: TLR8 human PBMC cell-based assay (antagonist, Compound A stimulated cytokine release)
# condition set: human PBMCs; TLR8 agonist Compound A 800 nM, 6 hours; cytokines (TNFa and IL 12p40) in supernatant; read-out: TLR-8 EC50
# Description: Human peripheral blood mononuclear cells (PBMCs) consist of lymphocytes, monocytes and dendritic cells that express TLR7, TLR8 and TLR9. These cells respond to TLR7, TLR8 and TLR9 ligand stimulation and produce cytokines and chemokines in vitro and in vivo. Human PBMCs are therefore suitable to be used in a cell-based assay to assess the in vitro potency of a TLR 7, 8, and/or 9 antagonist. […]
Form field - Quantity: EC50; Unit: nM; Scale: log10

Note down log10(EC50) recorded for Cc1cc(-c2[nH]c3cc(C(=O)N4CCC(O)CC4)sc3c2C(C)C)cn2ncnc12 [Example 44]
1.61

Note down log10(EC50) recorded for Cc1c(-c2[nH]c3cc(C(=O)N(C)C4CCN(C)CC4)sc3c2C(C)C)cn2ncnc2c1C [Example 151]
-0.22

Note down log10(EC50) recorded for Cc1cc(-c2[nH]c3cc(C4CCN(CCO)CC4)sc3c2C(C)C)cn2ncnc12 [Example 187]
-0.22

Note down log10(EC50) recorded for Cc1cc(-c2[nH]c3cc(C(=O)N(C)[C@H]4CCCNC4)sc3c2C(C)C)cc(C)n1 [Example 29]
1.96
